Assign Intact Membranes Counts/minute Bound Measured as % of Total Added to each entry below.
# target_entity: GRP receptor (Mus musculus, UniProt P21729)
# Construct: endogenous in cells; host or cells: mouse Swiss 3T3 fibroblasts (membranes; intact or solubilized with CHAPS/CHS)
# Sequence (P21729 whole entry): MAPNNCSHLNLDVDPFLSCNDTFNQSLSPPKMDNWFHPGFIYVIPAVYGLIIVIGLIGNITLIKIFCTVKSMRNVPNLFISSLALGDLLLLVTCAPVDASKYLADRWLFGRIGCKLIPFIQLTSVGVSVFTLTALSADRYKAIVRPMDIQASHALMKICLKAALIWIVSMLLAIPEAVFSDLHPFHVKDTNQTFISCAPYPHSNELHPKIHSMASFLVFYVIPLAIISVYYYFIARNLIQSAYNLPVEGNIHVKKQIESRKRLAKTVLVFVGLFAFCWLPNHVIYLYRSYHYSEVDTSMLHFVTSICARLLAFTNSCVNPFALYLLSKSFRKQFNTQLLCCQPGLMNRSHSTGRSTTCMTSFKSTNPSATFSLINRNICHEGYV
# method_summary: ^125I-GRP ligand binding assay, intact Swiss 3T3 fibroblast membranes
# study_conditions: 5 µM nucleotide added to control containing MgCl2; control 28.9
One number for each entry, in %.

Consider the following illustrative entries.
>  <compound_string>
Nc1ncnc2c1ncn2[C@@H]1O[C@H](COP(=O)(O)OP(=O)(O)NP(=O)(O)O)[C@@H](O)[C@H]1O

>  <recorded_result>
33.4

$$$$
>  <compound_string>
Nc1nc2c(ncn2[C@@H]2O[C@H](COP(=O)(O)OP(=O)(O)OP(=O)(O)O)[C@@H](O)[C@H]2O)c(=O)[nH]1

>  <recorded_result>
10.7

$$$$
>  <compound_string>
Nc1ncnc2c1ncn2[C@@H]1O[C@H](COP(=O)(O)OP(=O)(O)OP(=O)(O)O)[C@@H](O)[C@H]1O

>  <recorded_result>
29.7

$$$$

Challenge: Specify the recorded Intact Membranes Counts/minute Bound Measured as % of Total Added for Nc1nc2c(ncn2[C@@H]2O[C@H](COP(=O)(O)OP(=O)(O)NP(=O)(O)O)[C@@H](O)[C@H]2O)c(=O)[nH]1 , system: GRP receptor (Mus musculus, UniProt P21729).
Response given: 10.5
